# ASSAYED_TARGET: JBMan (Jack bean α-mannosidase) (Canavalia ensiformis, UniProt C0HJB3)
# Sequence (C0HJB3 whole entry): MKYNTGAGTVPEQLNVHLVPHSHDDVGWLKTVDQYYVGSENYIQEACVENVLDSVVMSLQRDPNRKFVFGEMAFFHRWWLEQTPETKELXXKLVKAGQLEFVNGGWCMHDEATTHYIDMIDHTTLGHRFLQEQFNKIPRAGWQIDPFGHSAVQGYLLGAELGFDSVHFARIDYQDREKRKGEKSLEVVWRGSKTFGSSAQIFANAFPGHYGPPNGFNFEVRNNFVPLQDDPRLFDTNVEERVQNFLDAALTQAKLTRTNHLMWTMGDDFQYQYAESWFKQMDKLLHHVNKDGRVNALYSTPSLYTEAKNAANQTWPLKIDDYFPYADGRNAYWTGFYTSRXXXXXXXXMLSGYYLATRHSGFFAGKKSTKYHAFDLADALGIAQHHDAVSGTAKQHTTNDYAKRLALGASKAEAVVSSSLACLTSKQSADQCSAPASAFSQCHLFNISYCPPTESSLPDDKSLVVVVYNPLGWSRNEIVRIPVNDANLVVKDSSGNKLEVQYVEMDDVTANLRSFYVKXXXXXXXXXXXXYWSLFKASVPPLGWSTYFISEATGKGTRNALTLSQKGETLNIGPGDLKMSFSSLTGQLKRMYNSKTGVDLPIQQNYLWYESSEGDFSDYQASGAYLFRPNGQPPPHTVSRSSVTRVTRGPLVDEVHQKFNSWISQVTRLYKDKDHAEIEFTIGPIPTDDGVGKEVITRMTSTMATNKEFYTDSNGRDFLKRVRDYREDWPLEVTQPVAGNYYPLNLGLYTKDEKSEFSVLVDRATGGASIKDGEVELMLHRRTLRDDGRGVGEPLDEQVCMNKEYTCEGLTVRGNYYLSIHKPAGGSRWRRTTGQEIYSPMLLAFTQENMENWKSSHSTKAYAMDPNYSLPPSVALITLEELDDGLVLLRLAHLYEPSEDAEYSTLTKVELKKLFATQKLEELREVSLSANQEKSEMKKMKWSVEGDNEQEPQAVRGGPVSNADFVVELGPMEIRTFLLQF
# ASSAY_NAME: α-mannosidase inhibition assay with pNP-Man, JBMan
# Assay type: biochemical
# EXPERIMENTAL_SETUP: read-out: IC50 JBMan; 2 mM pNP-Man, pH 5.0
Overview of reported IC50 across a group of molecules:
Supply the numeric figure in µM, leaving out any unit text.

// below: answered molecules
- MOLECULE: "Cl.N=C(N)NCc1ccc(CN2C[C@@H](O)[C@@H](O)[C@H]2CO)cc1"
  MEASUREMENT_TYPE: "IC50"
  MEASURED_NUMBER: 115
- MOLECULE: "OC[C@@H]1[C@H](O)[C@H](O)CN1Cc1ccc2ccccc2c1"
  MEASUREMENT_TYPE: "IC50"
  MEASURED_NUMBER: 1950
- MOLECULE: "OC[C@@H]1[C@H](O)[C@H](O)CN1CC1CCOCC1"
  MEASUREMENT_TYPE: "IC50"
  MEASURED_NUMBER: 2550
- MOLECULE: "OCC1C(O)C(O)CN1Cc1ccc(I)cc1 (centres unmarked)"
  MEASUREMENT_TYPE: "IC50"
  MEASURED_NUMBER: 940

Pending molecule:
OCC1C(O)C(O)CN1CCc1cccc2ccccc12 (centres unmarked) has a reported IC50 of 18

----------
# ASSAYED_TARGET: AMAN-2 (Golgi α-mannosidase) (Caenorhabditis elegans, UniProt Q2PJ74)
# ASSAY_NAME: α-mannosidase inhibition assay with pNP-Man, AMAN-2
# Format: biochemical
# EXPERIMENTAL_SETUP: read-out: Ki AMAN-2; Dixon plots, pNP-Man 0.5-4 mM, pH 6.0
MEASUREMENT_TYPE: Ki (nM)
Express the result in nM but write the number alone.

- COMPOUND: "Cl.N=C(N)NCc1ccc(CN2C[C@@H](O)[C@@H](O)[C@H]2CO)cc1"
  Ki [nM]: 10300
- COMPOUND: "OC[C@@H](O)[C@H]1NC[C@@H](O)[C@H]1O [DIM, 1,4-dideoxy-1,4-imino-D-mannitol, reference compound]"
  Ki [nM]: 680

Turning now to a further compound:
The reported Ki of the compound OCC1C(O)C(O)CN1CCc1cccc2ccccc12 (stereo not drawn) was 150

----------
# ASSAYED_TARGET: LManII (lysosomal α-mannosidase) (Drosophila melanogaster, UniProt Q9VKV1)
# Sequence (Q9VKV1 25-1080): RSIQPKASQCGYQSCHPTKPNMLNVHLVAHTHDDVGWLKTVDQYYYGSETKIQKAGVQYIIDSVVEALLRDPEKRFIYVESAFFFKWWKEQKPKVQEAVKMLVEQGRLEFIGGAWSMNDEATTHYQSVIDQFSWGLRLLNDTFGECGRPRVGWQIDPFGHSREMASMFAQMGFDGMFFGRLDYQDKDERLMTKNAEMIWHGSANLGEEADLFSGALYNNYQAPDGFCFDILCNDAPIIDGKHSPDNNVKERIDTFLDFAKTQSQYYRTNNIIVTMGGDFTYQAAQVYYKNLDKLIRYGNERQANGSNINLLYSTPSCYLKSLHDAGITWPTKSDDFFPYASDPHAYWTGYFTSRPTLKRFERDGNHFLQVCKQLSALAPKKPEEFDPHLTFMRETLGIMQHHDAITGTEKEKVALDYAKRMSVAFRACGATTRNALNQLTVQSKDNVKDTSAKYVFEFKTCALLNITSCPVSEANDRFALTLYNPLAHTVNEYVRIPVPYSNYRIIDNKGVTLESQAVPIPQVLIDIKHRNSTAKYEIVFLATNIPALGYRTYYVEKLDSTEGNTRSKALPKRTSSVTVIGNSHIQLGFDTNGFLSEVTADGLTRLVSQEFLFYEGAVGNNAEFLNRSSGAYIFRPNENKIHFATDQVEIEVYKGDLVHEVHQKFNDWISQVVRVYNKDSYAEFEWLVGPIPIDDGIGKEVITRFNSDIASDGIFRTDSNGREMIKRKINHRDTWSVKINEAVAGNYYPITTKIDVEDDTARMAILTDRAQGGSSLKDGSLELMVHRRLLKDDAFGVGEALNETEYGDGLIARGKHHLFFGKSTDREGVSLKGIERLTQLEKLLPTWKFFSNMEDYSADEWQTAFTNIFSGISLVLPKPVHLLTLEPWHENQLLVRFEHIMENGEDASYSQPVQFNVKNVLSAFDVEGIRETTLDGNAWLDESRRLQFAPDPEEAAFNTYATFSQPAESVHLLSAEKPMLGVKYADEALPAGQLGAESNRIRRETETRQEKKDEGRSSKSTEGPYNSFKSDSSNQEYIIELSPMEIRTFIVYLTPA
# ASSAY_NAME: α-mannosidase inhibition assay with pNP-Man, LManII
# Assay type: biochemical
MEASUREMENT_TYPE: IC50
# do not omit the unit; it follows the number

- COMPOUND_SMILES: "CCCCCCCCCCCCN1C[C@@H](O)[C@@H](O)[C@H]1CO"
  MEASUREMENT_TYPE: "IC50"
  RESULT: "11.8 µM"
- COMPOUND_SMILES: "Cl.N=C(N)CCCCCCCCCN1C[C@@H](O)[C@@H](O)[C@H]1CO"
  MEASUREMENT_TYPE: "IC50"
  RESULT: "6.7 µM"
- COMPOUND_SMILES: "OC[C@@H]1[C@H](O)[C@H](O)CN1Cc1ccccc1"
  MEASUREMENT_TYPE: "IC50"
  RESULT: "675 µM"
- COMPOUND_SMILES: "Cl.N=C(N)NCCCCCCCCCCN1C[C@@H](O)[C@@H](O)[C@H]1CO"
  MEASUREMENT_TYPE: "IC50"
  RESULT: "8.3 µM"

OC[C@@H]1[C@H](O)[C@H](O)CN1CC1CCCCC1 has a reported IC50 of 190 µM

----------
# ASSAYED_TARGET: AMAN-2 (Golgi α-mannosidase) (Caenorhabditis elegans)
# Sequence (Q2PJ74 27-1145): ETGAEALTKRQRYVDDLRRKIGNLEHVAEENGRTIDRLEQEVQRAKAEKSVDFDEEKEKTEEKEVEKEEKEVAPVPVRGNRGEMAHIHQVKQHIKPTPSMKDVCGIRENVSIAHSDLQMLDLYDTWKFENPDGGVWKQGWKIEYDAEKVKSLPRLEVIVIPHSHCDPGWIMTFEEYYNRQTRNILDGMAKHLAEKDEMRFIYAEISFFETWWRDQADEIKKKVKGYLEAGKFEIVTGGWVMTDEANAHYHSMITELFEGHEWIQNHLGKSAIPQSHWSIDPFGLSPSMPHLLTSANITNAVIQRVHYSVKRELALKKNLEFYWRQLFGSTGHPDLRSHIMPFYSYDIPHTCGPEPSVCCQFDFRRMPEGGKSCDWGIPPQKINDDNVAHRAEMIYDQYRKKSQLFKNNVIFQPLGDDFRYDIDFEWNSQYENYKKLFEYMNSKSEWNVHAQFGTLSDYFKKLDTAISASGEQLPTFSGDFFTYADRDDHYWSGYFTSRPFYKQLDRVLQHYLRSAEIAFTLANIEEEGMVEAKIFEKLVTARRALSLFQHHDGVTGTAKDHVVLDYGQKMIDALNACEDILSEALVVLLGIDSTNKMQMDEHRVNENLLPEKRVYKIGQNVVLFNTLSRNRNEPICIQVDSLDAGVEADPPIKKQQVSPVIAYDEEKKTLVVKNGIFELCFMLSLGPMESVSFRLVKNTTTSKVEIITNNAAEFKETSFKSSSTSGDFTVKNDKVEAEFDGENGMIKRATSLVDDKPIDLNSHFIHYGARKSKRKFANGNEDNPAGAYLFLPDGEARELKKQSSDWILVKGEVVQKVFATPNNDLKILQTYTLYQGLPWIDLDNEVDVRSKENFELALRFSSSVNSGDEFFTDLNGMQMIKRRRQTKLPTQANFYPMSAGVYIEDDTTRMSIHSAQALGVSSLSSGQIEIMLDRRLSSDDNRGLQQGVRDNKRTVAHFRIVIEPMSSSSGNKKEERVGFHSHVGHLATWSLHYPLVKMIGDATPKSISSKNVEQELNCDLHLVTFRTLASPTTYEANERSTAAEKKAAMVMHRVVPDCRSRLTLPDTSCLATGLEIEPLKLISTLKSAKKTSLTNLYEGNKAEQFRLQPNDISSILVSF
# ASSAY_NAME: α-mannosidase inhibition assay with pNP-Man, AMAN-2
# Assay type: biochemical
# EXPERIMENTAL_SETUP: read-out: IC50 AMAN-2; 2 mM pNP-Man, pH 6.0
MEASUREMENT_TYPE: pIC50
The quantity pIC50 is defined as the negative base-10 logarithm of the molar concentration.

Solved entries:
- MOLECULE: "OC[C@@H]1[C@H](O)[C@H](O)CN1Cc1ccc2ccccc2c1 [Compound 17]"
  pIC50: 5.62
- MOLECULE: "OCC1C(O)C(O)CN1CCc1cccc2ccccc12 (centres unmarked) [Compound 18]"
  pIC50: 6.68
- MOLECULE: "OC[C@@H]1[C@H](O)[C@H](O)CN1CC1CCOCC1 [Compound 20]"
  pIC50: 4.07
- MOLECULE: "OCC1C(O)C(O)CN1Cc1ccc(I)cc1 (centres unmarked) [Compound 16]"
  pIC50: 5.46

The reported pIC50 of the molecule Cl.N=C(N)NCc1ccc(CN2C[C@@H](O)[C@@H](O)[C@H]2CO)cc1 [Compound 9] was 4.90

----------
Recorded IC50 for the following molecules
# ASSAYED_TARGET: GMIIb (Golgi α-mannosidase) (Drosophila melanogaster, UniProt Q9VF33)
# Sequence (Q9VF33 31-1249): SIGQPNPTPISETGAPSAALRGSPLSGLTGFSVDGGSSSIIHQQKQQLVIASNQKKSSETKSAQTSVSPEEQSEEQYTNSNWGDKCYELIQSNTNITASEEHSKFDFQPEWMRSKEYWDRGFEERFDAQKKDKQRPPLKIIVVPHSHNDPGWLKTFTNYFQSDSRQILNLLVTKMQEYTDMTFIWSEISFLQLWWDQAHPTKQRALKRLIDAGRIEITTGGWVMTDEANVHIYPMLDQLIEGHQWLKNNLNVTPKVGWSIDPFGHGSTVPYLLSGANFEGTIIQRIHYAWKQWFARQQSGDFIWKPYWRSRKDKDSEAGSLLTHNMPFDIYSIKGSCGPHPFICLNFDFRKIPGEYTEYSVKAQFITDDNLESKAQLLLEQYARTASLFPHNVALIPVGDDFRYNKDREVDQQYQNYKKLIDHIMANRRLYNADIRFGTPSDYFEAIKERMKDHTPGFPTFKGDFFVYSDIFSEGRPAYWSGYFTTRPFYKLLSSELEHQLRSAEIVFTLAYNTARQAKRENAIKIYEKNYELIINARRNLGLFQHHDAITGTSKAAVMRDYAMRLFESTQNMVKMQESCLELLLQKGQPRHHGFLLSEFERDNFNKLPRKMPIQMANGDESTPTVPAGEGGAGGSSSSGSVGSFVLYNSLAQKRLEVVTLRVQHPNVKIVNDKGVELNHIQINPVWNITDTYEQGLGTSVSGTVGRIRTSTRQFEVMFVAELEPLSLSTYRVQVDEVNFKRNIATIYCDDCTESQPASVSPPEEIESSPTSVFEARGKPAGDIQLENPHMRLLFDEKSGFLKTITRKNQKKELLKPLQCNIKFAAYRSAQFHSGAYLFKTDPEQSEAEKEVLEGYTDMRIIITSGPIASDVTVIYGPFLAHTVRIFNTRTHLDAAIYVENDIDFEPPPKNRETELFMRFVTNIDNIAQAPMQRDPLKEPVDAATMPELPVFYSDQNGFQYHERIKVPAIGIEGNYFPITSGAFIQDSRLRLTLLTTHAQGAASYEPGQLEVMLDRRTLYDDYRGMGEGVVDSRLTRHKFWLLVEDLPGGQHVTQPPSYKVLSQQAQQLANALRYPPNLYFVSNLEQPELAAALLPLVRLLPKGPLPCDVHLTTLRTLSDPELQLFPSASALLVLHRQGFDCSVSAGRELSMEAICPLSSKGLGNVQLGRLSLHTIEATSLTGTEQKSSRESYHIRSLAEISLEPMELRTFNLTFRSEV
# ASSAY_NAME: α-mannosidase inhibition assay with pNP-Man, GMIIb
# Assay type: biochemical
// note: answer is a bare numeric in nM

The following molecules have reported results that may help.
- MOLECULE: "CCCCCCCCCCCCN1C[C@@H](O)[C@@H](O)[C@H]1CO [Compound 21]"
  ASSAYED_TARGET: "GMIIb (Golgi α-mannosidase) (Drosophila melanogaster, UniProt Q9VF33)"
  IC50, nM: 400
- MOLECULE: "OC[C@@H]1[C@H](O)[C@H](O)CN1Cc1ccccc1 [Compound 4, N-Benzyl-1,4-dideoxy-1,4-imino-d-lyxitol]"
  ASSAYED_TARGET: "GMIIb (Golgi α-mannosidase) (Drosophila melanogaster, UniProt Q9VF33)"
  IC50, nM: 11000

Entry under test: Cl.N=C(N)NCCCCCCCCCCN1C[C@@H](O)[C@@H](O)[C@H]1CO [Compound 25] . Its IC50 was 450

molecule Cl.N=C(N)CCCCCCCCCN1C[C@@H](O)[C@@H](O)[C@H]1CO [Compound 26] , IC50 observed: 190

Measured IC50, OC[C@@H]1[C@H](O)[C@H](O)CN1CC1CCCCC1 [Compound 19] : 3500

----------
# ASSAYED_TARGET: JBMan (Jack bean α-mannosidase) (Canavalia ensiformis, UniProt C0HJB3)
# ASSAY_NAME: α-mannosidase inhibition assay with pNP-Man, JBMan
# Type: biochemical
# EXPERIMENTAL_SETUP: read-out: Ki JBMan; Dixon plots, pNP-Man 0.5-4 mM, pH 5.0
MEASUREMENT_TYPE: Ki (µM)
Output spec: scalar in µM, unitless text.

- MOLECULE: "OCC1C(O)C(O)CN1CCc1cccc2ccccc12 (centres unmarked)"
  ASSAYED_TARGET: "JBMan (Jack bean α-mannosidase) (Canavalia ensiformis, UniProt C0HJB3)"
  UNIT_ABBREV: "µM"
  Ki: 6.5

Then this molecule:
Form field Ki for item Cl.N=C(N)NCc1ccc(CN2C[C@@H](O)[C@@H](O)[C@H]2CO)cc1 on JBMan (Jack bean α-mannosidase) (Canavalia ensiformis, UniProt C0HJB3): 52.4
